experimentalSystem: T1, human CD22 on B cells of human PBMCs (human, UniProt P20273 20-847)
T1 construct: whole, on cells; also called CD22 on human B cells
measurementDescription: flow cytometry; Alexa Fluor 647-labelled antibody, human PBMCs
As shown below, each of these binders has a reported CD22: CD20+/CD20- (ratio of median fluorescent intensity) value.
quantityName: CD22: CD20+/CD20- (ratio of median fluorescent intensity) (fold)

1) TNT69 (antibody, human IgG1, kappa, V domains shown) VH: EVQLVESGGGLVQPGGSLRLSCAASGFAFSIYDMSWVRQAPGKGLEWVAYISSGGGTTYYPDTVKGRFTISRDNSKNTLYLQMNSLRAEDTAVYYCARHSGYGTHWGVLFAYWGRGTLVTVSS VL: DIQMTQSPSSLSASVGDRVTITCRASQDIHGYLNWYQQKPGKAPKLLIYYTSILHSGVPSRFSGSGSGTDFTLTISSLQPEDFATYFCQQGNTLPWTFGQGTKLEIKR    25.4
2) TNT83 (antibody, human IgG1, kappa, V domains shown) VH: EVQLVESGGGLVQPGGSLRLSCAASGFTFSSYEMNWVRQAPGKGLEWVSYISSSGSTIYYADSVKGRFTISRDNAKNSLYLQMNSLRAEDTAVYYCARHSGYGTHWGVLFAYWGRGTLVTVSS VL: EIVLTQSPATLSLSPGERATLSCRASQDIHGYLNWYQQKPGQAPRLLIYYTSILHSGIPARFSGSGPGTDFTLTISSLEPEDFAVYYCQQGNTLPWTFGGGTKLEIKR    23
3) TNT73 (antibody, human IgG1, kappa, V domains shown) VH: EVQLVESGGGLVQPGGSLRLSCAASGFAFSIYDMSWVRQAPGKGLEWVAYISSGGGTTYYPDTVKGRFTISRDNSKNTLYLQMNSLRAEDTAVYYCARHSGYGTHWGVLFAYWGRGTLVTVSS VL: DIQMTQSPSSVSASVGDRVTITCRASQDIHGYLAWYQQKPGKAPKLLIYYTSSLQSGVPSRFSGSGSGTDFTLTISSLQPEDFATYYCQQGNTLPWTFGQGTKLEIKR    19.9

Reference source for all entries: patent US20220380768A1
